test.system: T1, full-length human OX40 expressed on HuT78 cells (HuT78/OX40) (human, UniProt P43489 29-277)
T1 sequence: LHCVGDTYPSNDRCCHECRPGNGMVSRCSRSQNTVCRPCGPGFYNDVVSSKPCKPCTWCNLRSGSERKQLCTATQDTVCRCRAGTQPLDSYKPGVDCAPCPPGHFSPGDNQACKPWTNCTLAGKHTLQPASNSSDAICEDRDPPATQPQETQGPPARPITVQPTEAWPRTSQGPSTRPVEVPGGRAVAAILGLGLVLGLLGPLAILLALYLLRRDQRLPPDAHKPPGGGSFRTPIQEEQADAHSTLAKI
method.notes: flow cytometry on live HuT78/OX40 cells; Mean
metric.name: Top(MFI)

binder	metric.name	assay.value
ch445 (antibody, V domains shown, also called Mu445 variable domains fused to human IgG1wt/kappa constant regions) VH: EVQLQQSGPELVKPGASVKMSCKASGYKFTSYIIHWVKQKPGQGLEWIGYINPYNDGTRYNEKFKGKATLTSDKSSSTAYMEYSSLTSEDSAVYYCARGYYGSSYAMDYWGQGTSVTVSS VL: DIQMTQTTSSLSASLGDRVTISCSASQGISNYLNWYQQKPDGTIKLLIYDTSTLYSGVPSRFSGSGSGTDYFLTISNLEPEDIATYYCQQYSKLPYTFGGGTKLEKK	Top(MFI)	725 MFI
